System: NCI-H1944
Assay: relative viability (nuclei count vs DMSO), 5 days (fraction); higher = more cells survive
Conditions: first compound 0.8 µM
quantity_kind: relative viability
Kindly provide the number alone.

Recorded relative viability, per entry:
molecule	relative viability
O=c1cc(-c2cccc3c2Sc2ccccc2S3)oc(N2CCOCC2)c1 + Nc1nc2[nH]cc(CCc3ccc(C(=O)N[C@@H](CCC(=O)O)C(=O)O)cc3)c2c(=O)[nH]1 [Pemetrexed] (partner 0.2 µM)	0.636
O=c1cc(-c2cccc3c2Sc2ccccc2S3)oc(N2CCOCC2)c1 + C[C@]1(O)C[C@@H](c2nc(-c3ccc4ccc(-c5ccccc5)nc4c3)c3c(N)nccn32)C1 [Linsitinib] (partner 1 µM)	1.23

Consider the record given below.
The value of relative viability measured for the molecule O=c1cc(-c2cccc3c2Sc2ccccc2S3)oc(N2CCOCC2)c1 + Nc1ncn([C@H]2C[C@H](O)[C@@H](CO)O2)c(=O)n1 [Decitabine] (partner 2 µM) turned out to be 0.457
